assay: Effect on fatty acid composition in human myotubes assessed as intracellular PUFA n-6 level at 10 uM after 96 hrs (Rvb= 13.41%); assay type: functional
Readings of Activity for the listed compounds
Report the figure in mol% without appending any unit label.

Sample answers from the record:
Smiles representation: CCCCCCCCCCCCCCSCC(=O)OC[C@H](COP(=O)([O-])OCC[N+](C)(C)C)OC(=O)CSCCCCCCCCCCCCCC
Value kind: Activity
Units: mol%
Quantitative readout: 12.71
--
Smiles representation: CCCCCCC#CCCCCCCSCC(=O)O
Value kind: Activity
Units: mol%
Quantitative readout: 13.93
--
Smiles representation: CCCCCCCCCCCCCCSCC(=O)OC[C@@H](O)CO
Value kind: Activity
Units: mol%
Quantitative readout: 14.15
--
Smiles representation: CCCCCCCCCCCCCCSCC(=O)O
Value kind: Activity
Units: mol%
Quantitative readout: 14.34

Read the next record carefully.
Ask: Identify the reported Activity for the following entry. `CCCCCCCCCCCCCCSCC(=O)OC[C@@H](O)COP(=O)([O-])OCC[N+](C)(C)C`
Result: 13.96

Origin of values: ChEMBL document CHEMBL3763093
